Test system: human gastric cancer MKN-45 cells
Experiment: Cell proliferation assay (CCK-8)
Assay type: cell-based
Conditions: MKN-45, 72 h
pIC50: −log10 of the molar value.
reported-endpoint: pIC50

{"compound": "COc1cc(/C=C/C(=O)O[C@@H]2C[C@@H]3[C@H](/C=C/CCC[C@H](C)OC(=O)/C=C/[C@H]3OC(=O)/C=C/c3cc(OC)c(OC)c(OC)c3)C2)cc(OC)c1OC [Compound 11c]", "tested-on": "human gastric cancer MKN-45 cells", "reported-endpoint": "pIC50", "recorded-measurement": "5.00 to 6.00"}
{"compound": "C[C@H]1CCC/C=C/[C@@H]2C[C@H](OC(=O)/C=C/c3cccc(F)c3)C[C@H]2[C@H](O)/C=C/C(=O)O1", "tested-on": "human gastric cancer MKN-45 cells", "reported-endpoint": "pIC50", "recorded-measurement": "6.00 to 7.00"}
{"compound": "C[C@H]1CCC/C=C/[C@@H]2C[C@H](OC(=O)/C=C/c3ccc4c(c3)OCO4)C[C@H]2[C@H](O)/C=C/C(=O)O1", "tested-on": "human gastric cancer MKN-45 cells", "reported-endpoint": "pIC50", "recorded-measurement": "6.00 to 7.00"}
{"compound": "C[C@H]1CCC/C=C/[C@@H]2C[C@H](O)C[C@H]2[C@H](OC(=O)/C=C/c2ccccn2)/C=C/C(=O)O1 [Compound 15b]", "tested-on": "human gastric cancer MKN-45 cells", "reported-endpoint": "pIC50", "recorded-measurement": "6.00 to 7.00"}
{"compound": "C[C@H]1CCC/C=C/[C@@H]2C[C@H](OC(=O)/C=C/c3ccncc3)C[C@H]2[C@H](O)/C=C/C(=O)O1 [Compound 14a]", "tested-on": "human gastric cancer MKN-45 cells", "reported-endpoint": "pIC50", "recorded-measurement": "6.00 to 7.00"}
{"compound": "C[C@H]1CCC/C=C/[C@@H]2C[C@H](O)C[C@H]2[C@H](OC(=O)/C=C/c2cccc(F)c2)/C=C/C(=O)O1", "tested-on": "human gastric cancer MKN-45 cells", "reported-endpoint": "pIC50", "recorded-measurement": "6.00 to 7.00"}
{"compound": "C[C@H]1CCC/C=C/[C@@H]2C[C@H](OC(=O)/C=C/c3ccc(N(C)C)cc3)C[C@H]2[C@H](OC(=O)/C=C/c2ccc(N(C)C)cc2)/C=C/C(=O)O1 [Compound 10c]", "tested-on": "human gastric cancer MKN-45 cells", "reported-endpoint": "pIC50", "recorded-measurement": "6.00 to 7.00"}
{"compound": "C[C@H]1CCC/C=C/[C@@H]2C[C@H](OC(=O)/C=C/c3ccccn3)C[C@H]2[C@H](OC(=O)/C=C/c2ccccn2)/C=C/C(=O)O1 [Compound 15c]", "tested-on": "human gastric cancer MKN-45 cells", "reported-endpoint": "pIC50", "recorded-measurement": "5.00 to 6.00"}
{"compound": "Cc1cccc(/C=C/C(=O)O[C@@H]2C[C@@H]3[C@H](/C=C/CCC[C@H](C)OC(=O)/C=C/[C@H]3OC(=O)/C=C/c3cccc(C)c3)C2)c1", "tested-on": "human gastric cancer MKN-45 cells", "reported-endpoint": "pIC50", "recorded-measurement": "6.00 to 7.00"}

All figures here come from patent US20220064138A1.
